Please find below Ki data on Melanocyte-stimulating hormone receptor (Homo sapiens, UniProt Q01726) compiled from the literature.
Sequence (Q01726 whole entry): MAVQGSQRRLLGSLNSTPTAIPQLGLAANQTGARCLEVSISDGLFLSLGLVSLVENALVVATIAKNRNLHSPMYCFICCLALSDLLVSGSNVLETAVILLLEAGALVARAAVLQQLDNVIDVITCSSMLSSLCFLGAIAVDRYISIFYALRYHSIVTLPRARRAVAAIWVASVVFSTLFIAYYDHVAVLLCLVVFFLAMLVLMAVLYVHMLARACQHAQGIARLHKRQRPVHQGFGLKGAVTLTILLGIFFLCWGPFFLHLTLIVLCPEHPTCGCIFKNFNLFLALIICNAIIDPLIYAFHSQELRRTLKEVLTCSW
Answers are plain numbers, in µM.

compound	tgt	recorded-metric	unit-tag	test-value
CNC(=O)[C@H](Cc1ccc2ccccc2c1)NC(=O)[C@H](CCCN=C(N)N)NC(=O)[C@H](CC[C@@H]1Cc2ccccc2CN1)Cc1ccccc1	Melanocyte-stimulating hormone receptor (Homo sapiens, UniProt Q01726)	Ki	µM	3.99
CNC(=O)[C@H](Cc1ccc2ccccc2c1)NC(=O)[C@H](CCCN=C(N)N)NC(=O)[C@H](CC[C@H](Cc1ccc(Cl)cc1)NC(C)=O)Cc1ccc(F)cc1	Melanocyte-stimulating hormone receptor (Homo sapiens, UniProt Q01726)	Ki	µM	12.3
CC(=O)N[C@@H](Cc1ccc(O)cc1)C(=O)N[C@@H](CCCN=C(N)N)C(=O)N[C@H]1CSSC[C@@H](C(N)=O)NC(=O)[C@H](Cc2c[nH]c3ccccc23)NC(=O)[C@H](CCCN=C(N)N)NC(=O)[C@@H](Cc2ccc3ccccc3c2)NC(=O)[C@H](Cc2c[nH]cn2)NC(=O)[C@H](CCC(=O)O)NC1=O	Melanocyte-stimulating hormone receptor (Homo sapiens, UniProt Q01726)	Ki	µM	0.121
CC(=O)c1ccc(Nc2nc3ccc(C(=O)N(CCC(C)C)CCC(C)C)cc3n2CCCN2CCCCC2)cc1	Melanocyte-stimulating hormone receptor (Homo sapiens, UniProt Q01726)	Ki	µM	5.2

Batch request: Ki for each of the following compounds.
1. CC(=O)N[C@@H](Cc1ccc(O)cc1)C(=O)N[C@@H](CCCN=C(N)N)C(=O)N[C@H]1CSSC[C@@H](C(=O)N[C@@H](CO)C(=O)N2CCC[C@H]2C(=O)N2CCC[C@H]2C(=O)N[C@@H](CCCCN)C(=O)N[C@@H](CC(=O)O)C(N)=O)NC(=O)[C@H](Cc2c[nH]c3ccccc23)NC(=O)[C@H](CCCN=C(N)N)NC(=O)[C@@H](Cc2ccccc2)NC(=O)[C@H](Cc2c[nH]cn2)NC(=O)[C@H](CCC(=O)O)NC1=O
2. CC(C)(C)C(=O)N[C@@H](Cc1cnc[nH]1)C(=O)N[C@@H](Cc1ccccc1)C(=O)N[C@@H](CCCNC(=N)N)C(=O)N[C@@H](Cc1c[nH]c2ccccc12)C(N)=O
3. Cc1ccc([C@@H](CC(C)C)NC(=O)CCN(C)C)c(N2CCN(C(=O)[C@H](C)Cc3ccc(Cl)cc3Cl)CC2)n1
4. CCN(CC)CC(c1ccccc1F)N1CCN(C(=O)[C@@H](Cc2ccc(Cl)cc2)NC(=O)C2Cc3ccccc3C(C)(C)N2)CC1 (stereo not given in full)
5. CNC(=O)[C@H](Cc1ccc2ccccc2c1)NC(=O)[C@H](CCCN=C(N)N)NC(=O)[C@H](CC[C@H](Cc1ccc(O)cc1)NC(C)=O)Cc1ccc(F)cc1
6. O=C(N[C@H](Cc1ccc(Cl)cc1)C(=O)N1CC[N+]([O-])(c2ccccc2)CC1)C1Cc2ccccc2CN1 (stereo not given in full)

0.00057
0.043
6.4
7
22.3
36

---

Here is a set of compounds with reported Ki for UniProt:Q01726, compiled from the literature.
Answers are plain numbers, in nM.

Answered cases to consult:
compound	tgt	test-value
CC(N[C@H]1CCNC1)c1ccccc1N1CCN(C(=O)[C@@H](Cc2ccc(Cl)cc2)NC(=O)[C@H]2Cc3ccccc3CN2)CC1 (stereo partly specified)	UniProt:Q01726	2100
NC(N)=NCCNC(=O)[C@H]1C[C@@H](OCc2ccc3ccccc3c2)CN1C(=O)[C@@H](Cc1ccccc1)NC(=O)C1CCNCC1	UniProt:Q01726	121
NCCC(=O)N[C@H](Cc1ccc(Cl)cc1Cl)C(=O)N1CCN(C2(CNC(=O)Cc3cccs3)CCCCC2)CC1	UniProt:Q01726	4600
NCCCNC(=O)[C@H](CNCc1c[nH]c2ccccc12)NCc1ccc2ccccc2c1	UniProt:Q01726	631
C[C@@H]1NC(=O)c2cc([N+](=O)[O-])ccc2SC[C@@H](C(N)=O)NC(=O)[C@H](Cc2c[nH]c3ccccc23)NC(=O)[C@H](CCCNC(=N)N)NC(=O)[C@@H](Cc2ccccc2)NC(=O)[C@H](Cc2c[nH]cn2)NC1=O	UniProt:Q01726	56.2

// below: Ki requested for another compound
Please report the recorded Ki for "CCCC(=O)N[C@@H](Cc1cnc[nH]1)C(=O)N[C@@H](Cc1ccccc1)C(=O)N[C@@H](CCCNC(=N)N)C(=O)N[C@@H](Cc1c[nH]c2ccccc12)C(N)=O" . 37.5
